subject of test: Rap guanine nucleotide exchange factor 4 (Homo sapiens)
assay explanation: Confirmatory qHTS for antagonist of cAMP-regulated guanine nucleotide exchange factor 4 (EPAC2) (AID 1645885); note: nearly all actives have a fitted effect of over 25% in size; note: potency is the fitted concentration of half-maximal effect
details: EPAC2 Rap1B-BODIPY-GDP exchange fluorescence, biochemical; series mostly up to 12.7 µM
Results filed as inconclusive are left out. Calls of active or inactive are those of the source. Calls come from the whole dose curve; as a rule, active = well fitted inhibition curve with a large enough effect; inconclusive = small, poorly fitted or top-dose-only effect; inactive = no such curve, though single readings can be large or run the other way.
assay readout: Potency

{"columns": ["molecule", "Potency"],
 "data": [
  ["CC(=O)Nc1cccc(C(=O)/C=C/c2ccc(F)cc2)c1", "inactive"],
  ["COc1ccc2oc(=O)c(-c3nnc(NCc4ccco4)s3)cc2c1", "inactive"],
  ["COc1ccc(OC)c(/C=C/c2nc3ccccc3nc2C)c1", "inactive"],
  ["O=C1c2cccc3c(O)ccc(c23)C(=O)N1Cc1ccccc1", "75.7 µM (active)"]
]}

Q: Please supply the value of reported Potency for the item `COc1ccc(/C=C/C(=O)Oc2ccc(C)c(C)c2)cc1OC`
A: inactive

Q: Please supply the value of reported Potency for the item `COC(=O)c1cc2occc2n1Cc1cccc(C)c1`
A: inactive

* * *

subject of test: Rap guanine nucleotide exchange factor 3 (Homo sapiens)
assay explanation: Counterscreen qHTS for antagonist of cAMP-regulated guanine nucleotide exchange factor 3 (EPAC1) (AID 1645888);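 note: fluorescence loss as bound BODIPY-GDP is released from Rap1B; % of control where 0% means no effect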
details: Rap1B-BODIPY-GDP nucleotide exchange, fluorescence; series mostly up to 154 µM
Results filed as inconclusive are left out. Active and inactive are the calls of the source. Calls come from the whole dose curve; as a rule, active = well fitted inhibition curve with a large enough effect; inconclusive = small, poorly fitted or top-dose-only effect; inactive = no such curve, though single readings can be large or run the other way.
assay readout: activity change, negative = inhibition

The following molecules have reported results that may help.
{"columns": ["molecule", "endpoint result"],
 "data": [
  ["COc1ccc(-n2c(SCC(=O)Nc3ccccc3OC)nc(O)cc2=O)cc1", "-3.75% [at 30.8 µM] (inactive)"],
  ["O=C(COc1ccc(Cl)cc1Cl)NNC(=S)NCc1ccco1", "inactive"],
  ["COc1cc2c(cc1NC(=O)C(C)Oc1ccc(Cl)cc1Cl)oc1ccccc12 (stereo unspecified)", "inactive"],
  ["CCOc1cccc(CNc2ccc(O)cc2)c1OCc1ccc(Cl)cc1Cl", "inactive"],
  ["Nc1nc2c(ncn2[C@@H]2O[C@H](CNS(=O)(=O)N3CCCC3)[C@@H](O)[C@H]2O)c(=O)[nH]1", "inactive"],
  ["COc1cc(/C=N/NC(=O)c2ccccc2O)ccc1OCC(=O)Nc1ccccc1", "0.781% [at 30.8 µM] (inactive)"],
  ["CCOc1cc(/C=C/c2cc(C(=O)O)c3ccccc3n2)ccc1OC", "8.54% [at 30.8 µM] (inactive)"],
  ["COc1ccc(/C=C2/SC(=O)N(CCC(=O)Nc3ccc(S(=O)(=O)Nc4nccs4)cc3)C2=O)cc1", "inactive"],
  ["COc1ccc([C@H]2CC(=O)C=C(c3cc(OC)ccc3OC)C2)cc1", "inactive"],
  ["O=C(NCCOc1ccc(F)cc1)c1ccccc1SCc1ccccc1", "18.3% [at 30.8 µM] (inactive)"]
]}

Q: Please supply the value of reported activity change, negative = inhibition for the item `CC(=O)Nc1ccc(NC(=S)NC(=O)/C=C/c2ccco2)cc1`
A: inactive

* * *

subject of test: Rap guanine nucleotide exchange factor 3 (Homo sapiens)
assay explanation: Counterscreen qHTS for antagonist of cAMP-regulated guanine nucleotide exchange factor 3 (EPAC1) (AID 1645888);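 note: fluorescence loss as bound BODIPY-GDP is released from Rap1B; % of control where 0% means no effect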
details: Rap1B-BODIPY-GDP nucleotide exchange, fluorescence; series mostly up to 154 µM
Inconclusive results are not listed. Calls of active or inactive are those of the source. Calls follow the shape of the dose curve; as a rule, active = well fitted inhibition curve with a large enough effect; inconclusive = small, poorly fitted or top-dose-only effect; inactive = no such curve, though single readings can be large or run the other way.
assay readout: activity change, negative = inhibition

{"columns": ["compound", "activity change, negative = inhibition"],
 "data": [
  ["Cc1ccc(/C=C/C(=O)Nc2ccc([N+](=O)[O-])c(NC(=O)/C=C/c3ccc(C)o3)c2)o1", "4.14% [at 30.8 µM] (inactive)"],
  ["CCN(CC)C(=O)CSc1nnc(-c2cccs2)n1Cc1ccco1", "inactive"],
  ["Cc1c2cc(O)c(=O)cc-2oc2cc(O)c(O)cc12", "-2.73% [at 30.8 µM] (inactive)"],
  ["Cc1ccc2nc(-c3ccccc3)c(Cc3cccc(F)c3)n2c1", "inactive"],
  ["O=C(CN1C(=O)N/C(=C\\c2ccccc2OCc2ccc(C(=O)O)cc2)C1=O)Nc1ccc(F)cc1", "inactive"],
  ["CCCn1nc([N+](=O)[O-])c(C(C#N)c2nc3ccccc3o2)c(Cl)c1=O (stereo not given)", "inactive"]
]}

Q: Please supply the value of reported activity change, negative = inhibition for the item `O=C1C=CC(=O)c2c(O)c(N3CCN(CCO)CC3)c(Cl)c(O)c21`
A: inactive

Q: Please supply the value of reported activity change, negative = inhibition for the item `CCc1ccc(N=C2NC(=O)/C(=C/c3ccc(OCC(=O)O)cc3)S2)cc1`
A: -19.4% [at 30.8 µM] (inactive)

Q: Please supply the value of reported activity change, negative = inhibition for the item `COc1cc(OC)cc(-c2cc3ccc(OC)cc3cn2)c1`
A: inactive

Q: Please supply the value of reported activity change, negative = inhibition for the item `COc1ccc2c(c1)CCc1c(C(=O)N(C)c3ccccc3)noc1-2`
A: inactive
